- protocol: PSAC antagonists in infected red cells, primary screen, cell-based, P. falciparum Indochina, OD700, 18 h (AID 1157)
- reported-conditions: P. falciparum Indochina infected erythrocytes, osmotic lysis OD700, 18 h; higher = more signal, called active from +8 up or from −8 down
yes means recorded z-score is 0.8 or above; no means it is below 0.8.

# compound, class
measured = [
    ("Cc1ccc(S[C@]2(C(=O)NCCN3CCOCC3)CC(=O)N(Cc3ccccc3C(F)(F)F)[C@@H]2c2ccc(CO)cc2I)cc1", "no"),
    ("COc1ccc([Si](C)(C)[C@@H]2[C@@H](CCO)O[C@]3(C(=O)N(Cc4cccc(N5C(=O)c6ccccc6Oc6ccccc65)c4)c4ccccc43)[C@H]2C)cc1", "yes"),
    ("O=C1NC(=O)C2C1C=CC(C(O)c1cc(C(F)(F)F)cc(C(F)(F)F)c1)N2Nc1ccc(Cl)cc1Cl (stereo not given)", "yes"),
    ("CCC[C@@H]1C[C@@]1(CCC)[C@@H](NP(=O)(c1ccccc1)c1ccccc1)c1ccc(Cl)cc1", "no"),
    ("Cc1ccc(S[C@]2(C(=O)O)CC(=O)N(Cc3ccccc3Cl)[C@@H]2c2ccc(CO)cc2)cc1", "no"),
    ("CC(C)(C)OC(=O)CC[C@]1(C(=O)O)N=C(c2ccc(OCCCO)cc2)O[C@H]1c1ccccc1CN=[N+]=[N-]", "no"),
    ("C=CCC(OC(C)=O)[C@@H]1[C@@H](N(Cc2cc3ccccc3o2)C(=O)c2ccc(C)cc2)c2cc(OCCCO)ccc2N1C(=O)Cc1ccc2ccccc2c1 (stereo not given in full)", "no"),
    ("O=C(O)[C@H]1C[C@H]2C(=O)N3CCC[C@H]3C(=O)N2[C@H]1c1cccc(OCCO)c1", "no"),
    ("C=CC[C@H](OC(=O)Nc1ccc(OC)cc1)c1ccc(O)c2ccccc12", "no"),
    ("C[C@H]1C2=C3C(CC[C@H]4C(OCc5ccc(F)cc5C(F)(F)F)OC[C@](C)([C@@H]34)N(C(=O)OC(C)(C)C)C2)C(CO)C1CO (stereo not given in full)", "yes"),
    ("O=C1O[C@@H](c2ccccc2)[C@@H](c2ccccc2)N2[C@@H](c3ccccc3OCCO)[C@]3(C(=O)Nc4ccc(C#CCCO)cc43)[C@@H](C(=O)Nc3nc4ccccc4s3)[C@H]12", "yes"),
    ("CCOc1cc(C(O)C2C=CC3C(=O)N(C4CCCCC4)C(=O)C3N2Nc2ccc(OC)cc2)ccc1O (stereo not given)", "no"),
    ("COc1ccc(C#Cc2ccc3c(c2)[C@]2(C(=O)N3)[C@H](C(=O)N3CCc4cc(OC)c(OC)cc4C3)[C@H]3C(=O)O[C@H](c4ccccc4)[C@H](c4ccccc4)N3[C@@H]2c2ccc(O)cc2)cc1", "no"),
]
